Cited source for all entries: patent US20140349970A1

Recorded measurements of IC50, one per entry
# Tested Target: Syk catalytic domain (aa 356-635 with a C-terminal His-tag) (Homo sapiens, UniProt P43405)
# Construct: His-tag (C); made in house
# Assay: In vitro Syk kinase activity measured by trFRET, Syk catalytic domain
# Assay type: biochemical
# Setup Conditions: Syk catalytic domain (aa 356-635), trFRET, 0.001 mM ATP

CC(C)(O)c1ccc(-c2nc(-c3cccnc3)n3c2cnc2[nH]ccc23)cc1    < 100 nM

I have this molecule here, CN(C)C(=O)c1ccc2c(c1)c(-c1cc3c(ncc4cnn(C)c43)[nH]1)cn2C , and I need its recorded IC50.
< 100 nM

Now consider COc1ccc2c(c1)c(-c1cc3c(ncc4cnc([C@@H]5CCNC5)n43)[nH]1)cn2C [T.1.1.2, diacetate] .
< 100 nM

And the next one, CNc1ncc2cnc3[nH]c(-c4ccc(C)cc4)cc3n12 ?
100 to 1000 nM

###

Here, each record is paired with measured pIC50 data.
# Tested Target: Syk catalytic domain (aa 356-635 with a C-terminal His-tag) (Homo sapiens)
# Construct: His-tag (C); made in house
# Assay: In vitro Syk kinase activity measured by trFRET, Syk catalytic domain
# Format: biochemical
# Setup Conditions: Syk catalytic domain (aa 356-635), trFRET, 0.001 mM ATP
pIC50: −log10 of the molar value.

Answered examples (3):
COc1ccc2c(c1)c(-c1cc3c(ncc4cnn(C)c43)[nH]1)cn2CC(=O)N1CCN(C)CC1    > 7.00
Cc1nc(-c2ccc(C(C)(C)O)cc2)c2cnc3[nH]c(Br)cc3n12    6.00 to 7.00
CS(=O)(=O)c1cccc(-c2cc3c(ncc4cnc(C5CCC(O)C5)n43)[nH]2)c1 (stereo not shown)    6.00 to 7.00

Query compound follows.
Enter reported pIC50 observed with Syk catalytic domain (aa 356-635 with a C-terminal His-tag) (Homo sapiens) for CCc1c(-c2ccc(C(C)(C)O)cc2)[nH]c2ncc3cnc(C)n3c12
6.00 to 7.00

###

# Tested Target: Syk catalytic domain (aa 356-635 with a C-terminal His-tag) (Homo sapiens, UniProt P43405)
# Construct: His-tag (C); made in house
# Assay: In vitro Syk kinase activity measured by trFRET, Syk catalytic domain
# Type: biochemical
# Setup Conditions: Syk catalytic domain (aa 356-635), trFRET, 0.001 mM ATP
pIC50: −log10 of the molar value.
Reported Property: pIC50

These solved cases illustrate the format of a correct answer.
COc1ccc2c(c1)c(-c1cc3c(ncc4cnc(C(F)(F)F)n43)[nH]1)cn2C    6.00 to 7.00
COc1ccc2c(c1)c(-c1cc3c4c(cnc3n1COP(=O)(O)O)cnn4C)cn2C    5.00 to 6.00
Cn1ncc2cnc3[nH]c(-c4cccc5ncccc45)cc3c21    5.00 to 6.00
COCCC(=O)NCc1cccc(-c2cc3c(ncc4cnn(C)c43)[nH]2)c1    6.00 to 7.00
CCc1c[nH]c2ncc3c(-c4ccc(OC)c(F)c4)nn(C)c3c12    6.00 to 7.00

Which pIC50 is listed for CN1CCN(Cc2nc(-c3ccc(C(C)(C)O)cc3)c3cnc4[nH]ccc4n23)CC1 ?
5.00 to 6.00

Okay, and CCCc1nc(-c2ccc(OC)cc2)c2cnc3[nH]ccc3n12 ?
> 7.00

Input CN1CCN(CCNC(=O)Cc2cccc(-c3cc4c(ncc5cnn(C)c54)[nH]3)c2)CC1
5.00 to 6.00
